system: HeLa Kyoto; test: melting temperature (median over replicates), in situ; higher = more thermally stable; conditions: cell cycle stage: mitosis;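 also: HeLa Kyoto cells synchronized by double thymidine or nocodazole block, proteins quantified by TMT10plex mass spectrometry, three independent biological replicates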
measured_parameter: melting temperature (°C)

ordered_residues	assay_system	measured_parameter	numeric_result
MAASRPLSRFWEWGKNIVCVGRNYADHVREMRSAVLSEPVLFLKPSTAYAPEGSPILMPAYTRNLHHELELGVVMGKRCRAVPEAAAMDYVGGYALCLDMTARDVQDECKKKGLPWTLAKSFTASCPVSAFVPKEKIPDPHKLKLWLKVNGELRQEGETSSMIFSIPYIISYVSKIITLEEGDIILTGTPKGVGPVKENDEIEAGIHGLVSMTFKVEKPEY [FAHD1]	HeLa Kyoto	melting temperature	60
MENTENSVDSKSIKNLEPKIIHGSESMDSGISLDNSYKMDYPEMGLCIIINNKNFHKSTGMTSRSGTDVDAANLRETFRNLKYEVRNKNDLTREEIVELMRDVSKEDHSKRSSFVCVLLSHGEEGIIFGTNGPVDLKKITNFFRGDRCRSLTGKPKLFIIQACRGTELDCGIETDSGVDDDMACHKIPVEADFLYAYSTAPGYYSWRNSKDGSWFIQSLCAMLKQYADKLEFMHILTRVNRKVATEFESFSFDATFHAKKQIPCIVSMLTKELYFYH [CASP3]	HeLa Kyoto	melting temperature	56.3
MPFDFRRFDIYRKVPKDLTQPTYTGAIISICCCLFILFLFLSELTGFITTEVVNELYVDDPDKDSGGKIDVSLNISLPNLHCELVGLDIQDEMGRHEVGHIDNSMKIPLNNGAGCRFEGQFSINKVPGNFHVSTHSATAQPQNPDMTHVIHKLSFGDTLQVQNIHGAFNALGGADRLTSNPLASHDYILKIVPTVYEDKSGKQRYSYQYTVANKEYVAYSHTGRIIPAIWFRYDLSPITVKYTERRQPLYRFITTICAIIGGTFTVAGILDSCIFTASEAWKKIQLGKMH [ERGIC1]	HeLa Kyoto	melting temperature	55.6
MSDGDYDYLIKFLALGDSGVGKTSVLYQYTDGKFNSKFITTVGIDFREKRVVYRASGPDGATGRGQRIHLQLWDTAGQERFRSLTTAFFRDAMGFLLLFDLTNEQSFLNVRNWISQLQMHAYCENPDIVLCGNKSDLEDQRVVKEEEAIALAEKYGIPYFETSAANGTNISQAIEMLLDLIMKRMERCVDKSWIPEGVVRSNGHASTDQLSEEKEKGACGC [RAB27A]	HeLa Kyoto	melting temperature	53.9
MLQGHSSVFQALLGTFFTWGMTAAGAALVFVFSSGQRRILDGSLGFAAGVMLAASYWSLLAPAVEMATSSGGFGAFAFFPVAVGFTLGAAFVYLADLLMPHLGAAEDPQTTLALNFGSTLMKKKSDPEGPALLFPESELSIRIGRAGLLSDKSENGEAYQRKKAAATGLPEGPAVPVPSRGNLAQPGGSSWRRIALLILAITIHNVPEGLAVGVGFGAIEKTASATFESARNLAIGIGIQNFPEGLAVSLPLRGAGFSTWRAFWYGQLSGMVEPLAGVFGAFAVVLAEPILPYALAFAAGAMVYVVMDDIIPEAQISGNGKLASWASILGFVVMMSLDVGLG [SLC39A11]	HeLa Kyoto	melting temperature	51.9
MGNGGRSGLQQGKGNVDGVAATPTAASASCQYRCIECNQEAKELYRDYNHGVLKITICKSCQKPVDKYIEYDPVIILINAILCKAQAYRHILFNTQINIHGKLCIFCLLCEAYLRWWQLQDSNQNTAPDDLIRYAKEWDFYRMFAIAALEQTAYFIGIFTFLWVERPMTAKKKPNFILLLKALLLSSYGKLLLIPAVIWEHDYTSVCLKLIKVFVLTSNFQAIRVTLNINRKLSFLAVLSGLLLESIMVYFFQSMEWDVGSDYAIFKSQDF [ARV1]	HeLa Kyoto	melting temperature	49.2
MAAAALGQIWARKLLSVPWLLCGPRRYASSSFKAADLQLEMTQKPHKKPGPGEPLVFGKTFTDHMLMVEWNDKGWGQPRIQPFQNLTLHPASSSLHYSLQLFEGMKAFKGKDQQVRLFRPWLNMDRMLRSAMRLCLPSFDKLELLECIRRLIEVDKDWVPDAAGTSLYVRPVLIGNEPSLGVSQPTRALLFVILCPVGAYFPGGSVTPVSLLADPAFIRAWVGGVGNYKLGGNYGPTVLVQQEALKRGCEQVLWLYGPDHQLTEVGTMNIFVYWTHEDGVLELVTPPLNGVILPGVVRQSLLDMAQTWGEFRVVERTITMKQLLRALEEGRVREVFGSGTACQVCPVHRILYKDRNLHIPTMENGPELILRFQKELKEIQYGIRAHEWMFPV [BCAT2]	HeLa Kyoto	melting temperature	55.1
MTSMTQSLREVIKAMTKARNFERVLGKITLVSAAPGKVICEMKVEEEHTNAIGTLHGGLTATLVDNISTMALLCTERGAPGVSVDMNITYMSPAKLGEDIVITAHVLKQGKTLAFTSVDLTNKATGKLIAQGRHTKHLGN [ACOT13]	HeLa Kyoto	melting temperature	57.7
MRRVTLFLNGSPKNGKVVAVYGTLSDLLSVASSKLGIKATSVYNGKGGLIDDIALIRDDDVLFVCEGEPFIDPQTDSKPPEGLLGFHTDWLTLNVGGRYFTTTRSTLVNKEPDSMLAHMFKDKGVWGNKQDHRGAFLIDRSPEYFEPILNYLRHGQLIVNDGINLLGVLEEARFFGIDSLIEHLEVAIKNSQPPEDHSPISRKEFVRFLLATPTKSELRCQGLNFSGADLSRLDLRYINFKMANLSRCNLAHANLCCANLERADLSGSVLDCANLQGVKMLCSNAEGASLKLCNFEDPSGLKANLEGANLKGVDMEGSQMTGINLRVATLKNAKLKNCNLRGATLAGTDLENCDLSGCDLQEANLRGSNVKGAIFEEMLTPLHMSQSVR [KCTD9]	HeLa Kyoto	melting temperature	51
MALDVKSRAKRYEKLDFLGEGQFATVYKARDKNTNQIVAIKKIKLGHRSEAKDGINRTALREIKLLQELSHPNIIGLLDAFGHKSNISLVFDFMETDLEVIIKDNSLVLTPSHIKAYMLMTLQGLEYLHQHWILHRDLKPNNLLLDENGVLKLADFGLAKSFGSPNRAYTHQVVTRWYRAPELLFGARMYGVGVDMWAVGCILAELLLRVPFLPGDSDLDQLTRIFETLGTPTEEQWPDMCSLPDYVTFKSFPGIPLHHIFSAAGDDLLDLIQGLFLFNPCARITATQALKMKYFSNRPGPTPGCQLPRPNCPVETLKEQSNPALAIKRKRTEALEQGGLPKKLIF [CDK7]	HeLa Kyoto	melting temperature	51
